study_target: T1, human ASGR-1 (wild type) (human, UniProt P07306 1-291)
T1 construct: also called wt ASGR1; huASGR-1
T1 sequence: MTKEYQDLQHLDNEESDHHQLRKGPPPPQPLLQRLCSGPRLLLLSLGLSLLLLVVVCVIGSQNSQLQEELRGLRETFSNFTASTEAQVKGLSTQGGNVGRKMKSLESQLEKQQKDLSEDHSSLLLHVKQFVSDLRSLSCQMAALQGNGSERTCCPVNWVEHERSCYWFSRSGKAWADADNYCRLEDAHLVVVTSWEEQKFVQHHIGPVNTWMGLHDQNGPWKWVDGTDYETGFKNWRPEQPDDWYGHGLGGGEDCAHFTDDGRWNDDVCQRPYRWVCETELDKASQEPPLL
protocol_summary: FACS ratio: 65C12 geomean / this mAb geomean
measurement_kind: Expression Normalization to mAb 65C12
Respond with the number and no other words.

In plain terms, 75G3 (antibody, V domains shown, mAb) VH: QVQLQQWGAGLLKPSETLSLTCAVYGGSLSGSYWSWIRQPPGKGLEWIGEINLSGSTNYNPSLKSRVTISVDTSKSQFSLTLRSVTAADTAVYYCARDYGGLDYWGQGTLVTVSS VL: EIVLTQSPGTLSLSPGERATLSCRARQNVDSSYLAWYQQKPGQAPRLLIYGASSRATGIPDRFSGSGSGTDFTLTISRLEPEDFAVFYCQQYERSPWTFGQGTKVEIK has a documented Expression Normalization to mAb 65C12 of 1.51

In plain terms, 191G1 (antibody, V domains shown, mAb) VH: QVQLVESGGGVVQPGRSLRLSCAASGFTFSSYGMHWVRQAPGKGLEWVAVIWYDGSNEHYADSVKGRFTISRDNSKNTLYLQMNSLRAEDTAVYYCARDRGVGYYGLDVWGQGTTVTVSS VL: DIQMTQSPSSLSASVGDRVTITCRASQGISNYLAWFQQKPGKAPKSLIYAASSLQSGVPSKFSGSGSGTDFTLTISSLQPEDFATYYCQHYLTYPLTFGGGTKVEIK has a documented Expression Normalization to mAb 65C12 of 2.22

In plain terms, 175F4 (antibody, V domains shown, mAb) VH: QVQLQQSGPGLVKPSQTLSLTCAISGDSVSSNSAAWNWIRQSPSRGLEWLGRTYYRSKWYNAYPVSMESRISINPDTSKNQFSLQLNSVTPEDTAVYYCARDKAAGRNDFYYYGMDVWGQGTTVTVSS VL: QSALTQPASVSGSPGQSITISCTGTSSDVGRFNLVSWYQQHPGYAPKLMIYEVSKRPSGVSNRFSGSKSGNTASLTISGLQAEDEADYYCCSYAGSSTYVVFGGGTKLTVL has a documented Expression Normalization to mAb 65C12 of 1.67
